- Target Or System: BACE 1 (Homo sapiens (Human), UniProt P56817)
- Sequence (P56817 46-457): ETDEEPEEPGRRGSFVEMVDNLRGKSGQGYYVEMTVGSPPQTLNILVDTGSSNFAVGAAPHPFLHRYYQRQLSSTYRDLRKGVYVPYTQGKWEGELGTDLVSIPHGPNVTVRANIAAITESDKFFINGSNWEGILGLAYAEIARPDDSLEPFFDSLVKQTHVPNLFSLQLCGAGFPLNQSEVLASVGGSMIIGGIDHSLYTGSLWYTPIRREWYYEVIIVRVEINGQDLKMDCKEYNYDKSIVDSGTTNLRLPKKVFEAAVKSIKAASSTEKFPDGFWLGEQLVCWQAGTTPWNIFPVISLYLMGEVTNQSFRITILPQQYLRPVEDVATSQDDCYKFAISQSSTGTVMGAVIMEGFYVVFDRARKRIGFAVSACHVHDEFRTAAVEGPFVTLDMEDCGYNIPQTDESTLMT
Measured Property: pIC50
Please report pIC50 as the negative decimal logarithm of the molar concentration, giving only the number.

| Molecule | Observed Measurement |
| --- | --- |
| Cc1cccc(C2CC(c3ccccc3)CCN2C(=O)[C@@H]2CNC[C@]23CCCc2nc(Cl)ccc23)c1 (stereo partly drawn) | 6.35 |
| O=C([C@@H]1CNC[C@]12CCCc1cc(Cl)ccc12)N1CCC(c2ccccc2)CC1 | 6.04 |
| CC(C)[C@@H]1C[C@H](c2ccccc2)CCN1C(=O)[C@@H]1CNC[C@]12CCCc1ccccc12 | 4.66 |
| COc1cccc2c1OCC[C@]21CNC[C@H]1C(=O)N1CC[C@@H](c2ccccc2)C[C@H]1C1CCCC(F)(F)C1 (stereo partly drawn) | 5.66 |
| O=C([C@@H]1CNC[C@]12CCCc1nc(Cl)ccc12)N1CCC2(C=Cc3ccccc32)CC1c1ccccc1 (stereo partly drawn) | 6.70 |

// moving on: another record for pIC50
input: Missing value: pIC50, BACE 1 (Homo sapiens (Human), UniProt P56817), entry "O=C([C@@H]1CNC[C@]12CCc1cc(Br)ccc12)N1CCC(c2ccccc2)CC1" . Fill in?
output: 4.85
